The origin of these recorded values is ChEMBL document CHEMBL3877325.

This listing pairs compounds with measured MIC.
# Tested on: Mycobacterium kansasii
# METHOD: Antimycobacterial activity against Mycobacterium kansasii isolate 6509/96 after 7 days by micromethod
# Assay type: functional
# SETUP_CONDITIONS: isolate 6509/96, 168 h

- COMPOUND: "O=C(Nc1ccc(Br)cc1)c1ccc(Cl)cc1O"
  MIC, µM: 4
- COMPOUND: "O=C(Nc1cc(C(F)(F)F)cc(C(F)(F)F)c1)c1cc(Cl)c(Br)cc1O"
  MIC, µM: 8
- COMPOUND: "O=C(Nc1ccc(Cl)c(Cl)c1)c1cc(Br)c(Cl)cc1O"
  MIC, µM: 8
- COMPOUND: "O=C(Nc1cc(C(F)(F)F)cc(C(F)(F)F)c1)c1cc(Br)c(Br)cc1O"
  MIC, µM: 8
- COMPOUND: "O=C(Nc1cc(C(F)(F)F)cc(C(F)(F)F)c1)c1cc(Br)c(Cl)cc1O"
  MIC, µM: 8
- COMPOUND: "O=C(Nc1cc(C(F)(F)F)cc(C(F)(F)F)c1)c1cc(Cl)ccc1O [IMD-0354]"
  MIC, µM: 8
- COMPOUND: "O=C(Nc1ccc(C(F)(F)F)cc1)c1cc(Cl)c(Br)cc1O"
  MIC, µM: 4
- COMPOUND: "O=C(Nc1ccc(C(F)(F)F)cc1)c1cc(Br)ccc1O"
  MIC, µM: 2
- COMPOUND: "O=C(Nc1cc(C(F)(F)F)cc(C(F)(F)F)c1)c1ccc(Br)cc1O"
  MIC, µM: 8
- COMPOUND: "O=C(Nc1ccc(Br)cc1)c1ccc(Br)cc1O"
  MIC, µM: 8
- COMPOUND: "O=C(Nc1ccc(C(F)(F)F)cc1)c1cc(Br)c(Br)cc1O"
  MIC, µM: 4

----------
# System: Mycobacterium kansasii
# METHOD: Antimycobacterial activity against Mycobacterium kansasii isolate 6509/96 after 7 days by micromethod
# Type: functional
# SETUP_CONDITIONS: isolate 6509/96, 168 h

- SMILES_INPUT: "O=C(Nc1ccc(Cl)c(Cl)c1)c1cc(Br)ccc1O"
  MIC, µM: 2
- SMILES_INPUT: "O=C(Nc1ccc(Cl)c(Cl)c1)c1cc(Cl)c(Br)cc1O"
  MIC, µM: 8
- SMILES_INPUT: "O=C(Nc1ccc(C(F)(F)F)cc1)c1cc(Cl)ccc1O"
  MIC, µM: 2
- SMILES_INPUT: "O=C(Nc1ccc(Cl)c(Cl)c1)c1ccc(Br)cc1O"
  MIC, µM: 4
- SMILES_INPUT: "O=C(Nc1ccc(C(F)(F)F)cc1)c1ccc(Br)cc1O"
  MIC, µM: 2
- SMILES_INPUT: "O=C(Nc1ccc(Cl)c(Cl)c1)c1ccc(Cl)cc1O"
  MIC, µM: 4

----------
# System: Mycobacterium tuberculosis
# METHOD: Antimycobacterial activity against Mycobacterium tuberculosis H37Rv My 331/88 after 21 days by micromethod
# Assay type: functional
# SETUP_CONDITIONS: H37Rv My 331/88, 504 h
This listing pairs molecules with measured log10 MIC.
OBSERVATION_TYPE: log10 MIC (log10 of the value in µM)

- MOLECULE: "O=C(Nc1ccc(Cl)c(Cl)c1)c1cc(Br)c(Br)cc1O"
  NUMBER: 0.60
- MOLECULE: "O=C(Nc1ccc(Br)cc1)c1cc(Cl)c(Br)cc1O"
  NUMBER: 0.30
- MOLECULE: "O=C(Nc1cc(C(F)(F)F)cc(C(F)(F)F)c1)c1ccc(Br)cc1O"
  NUMBER: 0.60
- MOLECULE: "O=C(Nc1ccc(Cl)c(Cl)c1)c1cc(Br)c(Cl)cc1O"
  NUMBER: 0.60
- MOLECULE: "O=C(Nc1ccc(Br)cc1)c1cc(Cl)ccc1O"
  NUMBER: 1.20
- MOLECULE: "O=C(Nc1ccc(Br)cc1)c1ccc(Br)cc1O"
  NUMBER: 0.60
- MOLECULE: "NNC(=O)c1ccncc1 [ISONIAZID]"
  NUMBER: 0.00
- MOLECULE: "O=C(Nc1ccc(Br)cc1)c1cc(Br)ccc1O [DIBROMSALAN]"
  NUMBER: 0.60
- MOLECULE: "O=C(Nc1ccc(Br)cc1)c1cc(Br)c(Br)cc1O"
  NUMBER: 0.60
- MOLECULE: "O=C(Nc1ccc(Cl)c(Cl)c1)c1cc(Br)ccc1O"
  NUMBER: 0.60
- MOLECULE: "O=C(Nc1ccc(C(F)(F)F)cc1)c1cc(Cl)c(Br)cc1O"
  NUMBER: 0.30
- MOLECULE: "O=C(Nc1cc(C(F)(F)F)cc(C(F)(F)F)c1)c1ccc(Cl)cc1O"
  NUMBER: 0.60
- MOLECULE: "O=C(Nc1cc(C(F)(F)F)cc(C(F)(F)F)c1)c1cc(Cl)ccc1O [IMD-0354]"
  NUMBER: 0.90
- MOLECULE: "O=C(Nc1ccc(C(F)(F)F)cc1)c1ccc(Br)cc1O"
  NUMBER: 0.30
- MOLECULE: "O=C(Nc1ccc(Br)cc1)c1ccc(Cl)cc1O"
  NUMBER: 0.60
- MOLECULE: "O=C(Nc1ccc(C(F)(F)F)cc1)c1ccc(Cl)cc1O"
  NUMBER: 0.60
- MOLECULE: "O=C(Nc1ccc(Br)cc1)c1cc(Cl)c(Cl)cc1O"
  NUMBER: 0.60
- MOLECULE: "O=C(Nc1ccc(Cl)c(Cl)c1)c1ccc(Cl)cc1O"
  NUMBER: 0.60
- MOLECULE: "O=C(Nc1cc(C(F)(F)F)cc(C(F)(F)F)c1)c1cc(Br)c(Cl)cc1O"
  NUMBER: 0.60
- MOLECULE: "O=C(Nc1ccc(C(F)(F)F)cc1)c1cc(Cl)c(Cl)cc1O"
  NUMBER: 0.30
- MOLECULE: "O=C(Nc1ccc(C(F)(F)F)cc1)c1cc(Cl)ccc1O"
  NUMBER: 0.30
- MOLECULE: "O=C(Nc1ccc(C(F)(F)F)cc1)c1cc(Br)c(Cl)cc1O"
  NUMBER: 0.30
- MOLECULE: "O=C(Nc1cc(C(F)(F)F)cc(C(F)(F)F)c1)c1cc(Cl)c(Br)cc1O"
  NUMBER: 0.30
- MOLECULE: "O=C(Nc1cc(C(F)(F)F)cc(C(F)(F)F)c1)c1cc(Br)c(Br)cc1O"
  NUMBER: 0.30
